Here the recorded MIC is given for each entry.
- Tested on: A. baumannii 14B00100 (Acinetobacter sp., BCRC number 14B0100)
- CONDITION_CONTEXT: MH broth; 5 × 10^5 CFU/mL, 16 h, 37 °C; repeated three times
EXPERIMENTAL_READOUT: MIC (µg/mL)

substance="Ac-LKWLAKKKKWRKW-NH2 [Peptide W5K06]" unit_symbol=µg/mL reported=50
substance="Ac-WRKWLKWLAKKKK-NH2 [Peptide W5K02]" unit_symbol=µg/mL reported=6.25
substance="Ac-KKKWRKWLKWLAK-NH2 [Peptide W5K12]" unit_symbol=µg/mL reported=3.13
substance="Ac-WLKWLAKKKKWRK-NH2 [Peptide W5K05]" unit_symbol=µg/mL reported=12.5
substance="Ac-KWRKWLKWLAKKK-NH2 [Peptide W5K01]" unit_symbol=µg/mL reported=6.25
substance="Ac-KWLAKKKKWRKWL-NH2 [Peptide W5K07]" unit_symbol=µg/mL reported=12.5

Every entry's value here was drawn from paper PMC12649549.
